These measurements were taken from ChEMBL document CHEMBL3864133.

assay overview: Cmax in nu/nu mouse at 100 mg/kg, po by LC-MS/MS analysis
Type: ADME, organism-based
Design: dose 100 mg/kg, route oral
test settings: in vivo
parameter measured: Cmax

**Query** Find the recorded Cmax belonging to CC(=O)N1CCc2c(c(Nc3ccc(-c4cnn(C)c4)cc3F)nn2[C@@H]2CCOC2)C1 and report it.
**Result** 163 µM

----------
assay overview: Volume of distribution at steady state in nu/nu mouse at 1 mg/kg, iv or 100 mg/kg, po by LC-MS/MS analysis
Assay type: ADME, organism-based
test settings: in vivo, read-out: Vdss
parameter measured: Vd

**Query** Find the recorded Vd belonging to CC(=O)N1CCc2c(c(Nc3ccc(-c4cnn(C)c4)cc3F)nn2[C@@H]2CCOC2)C1 and report it.
**Result** 1.5 L/kg
